# credit: patent US10329307B2

molecular target: PAR4 (Homo sapiens (Human), UniProt Q96RI0); experiment: FLIPR assay in PAR4-expressing HEK293 cells (PAR4 antagonist activity); details: H-Ala-Phe(4-F)-Pro-Gly-Trp-Leu-Val-Lys-Asn-Gly-NH2-induced intracellular calcium mobilization, 11-point curves
Sequence (Q96RI0 18-385): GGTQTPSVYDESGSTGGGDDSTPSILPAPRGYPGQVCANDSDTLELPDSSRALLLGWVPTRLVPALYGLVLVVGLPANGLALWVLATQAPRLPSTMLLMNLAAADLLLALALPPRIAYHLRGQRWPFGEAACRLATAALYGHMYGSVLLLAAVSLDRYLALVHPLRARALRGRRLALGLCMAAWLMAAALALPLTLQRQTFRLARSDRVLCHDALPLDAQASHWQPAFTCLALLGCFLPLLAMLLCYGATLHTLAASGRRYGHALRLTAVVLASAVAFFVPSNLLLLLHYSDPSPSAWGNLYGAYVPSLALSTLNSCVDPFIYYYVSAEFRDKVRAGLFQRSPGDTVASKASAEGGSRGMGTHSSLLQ
EXPERIMENTAL READOUT: IC50

Before answering, review these 3 worked examples.
# COMPOUND, TESTED TARGET, ASSAY RESULT
records = [
    ("COc1cc(OC[C@@H]2CCN(c3ccc(Cl)cc3)C2)c2cc(-c3cn4nc(OC)sc4n3)oc2c1 [Example 25]", "PAR4 (Homo sapiens (Human), UniProt Q96RI0)", "0.79 µM"),
    ("COc1cc(OCC2CCCN(S(=O)(=O)c3ccc(C)cc3)C2)c2cc(-c3cn4nc(OC)sc4n3)oc2c1 (stereo not drawn) [Example 8]", "PAR4 (Homo sapiens (Human), UniProt Q96RI0)", "1.4 µM"),
    ("CCOC(=O)c1ccc(N2CCCC(COc3cc(OC)cc4oc(-c5cn6nc(OC)sc6n5)cc34)C2)cc1 (stereo not drawn) [Example 41]", "PAR4 (Homo sapiens (Human), UniProt Q96RI0)", "2.1 µM"),
]

[ask] Identify measured IC50 corresponding to COc1cc(OCC2CCCN(c3ncc(Br)s3)C2)c2cc(-c3cn4nc(OC)sc4n3)oc2c1 (stereo not drawn) [Example 62]
[reply] 1.9 µM

[ask] In one line, give reported IC50 of the entry COc1ccc(N2CCN(C(=O)C3CC3)CC2COc2cc(OC)cc3oc(-c4cn5nc(C)ccc5n4)cc23)cc1 (stereo not drawn) [Example 6] .
[reply] 15 µM

[ask] Retrieve IC50 measured for COc1cc(OC[C@@H]2CCCN2c2ccc(C(F)(F)F)cc2)c2cc(-c3cn4nc(OC)sc4n3)oc2c1 [Example 22] and print it.
[reply] 0.44 µM

[ask] Kindly indicate its recorded IC50. Item: COc1cc(OCC2CCCCN2c2ccc(Cl)cc2)c2cc(-c3cn4nc(OC)sc4n3)oc2c1 (stereo not drawn) [Example 55]
[reply] 0.72 µM

* * *

IC50 reference
target: PAR4 (Homo sapiens (Human), UniProt Q96RI0); assay: FLIPR assay in PAR4-expressing HEK293 cells (PAR4 antagonist activity); conditions: H-Ala-Phe(4-F)-Pro-Gly-Trp-Leu-Val-Lys-Asn-Gly-NH2-induced intracellular calcium mobilization, 11-point curves
Write the answer as a number in nM, unit excluded.

Solved cases below.
# COMPOUND, UNITS, IC50
rows = [
    ("CCOC(=O)c1ccc(N2CCC[C@@H](COc3cc(OC)cc4oc(-c5cn6nc(OC)sc6n5)cc34)C2)cc1", "nM", 950),
    ("COc1cc(OC[C@H]2CCCN2c2ccc(C#N)cc2)c2cc(-c3cn4nc(OC)sc4n3)oc2c1", "nM", 420),
    ("COc1cc(OC[C@@H]2CCCN2c2ccc(OC(F)(F)F)cc2)c2cc(-c3cn4nc(OC)sc4n3)oc2c1", "nM", 600),
    ("COc1ccc(N2CCC[C@@H]2COc2cc(OC)cc3oc(-c4cn5nc(OC)sc5n4)cc23)cc1", "nM", 390),
    ("COc1cc(OC[C@@H]2CCCN(c3ccc(Cl)cc3)C2)c2cc(-c3cn4nc(OC)sc4n3)oc2c1", "nM", 700),
]

[ask] Quote IC50 reported for `COc1cc(OC[C@H]2CCCN(Cc3ccc(Cl)cc3)C2)c2cc(-c3cn4nc(OC)sc4n3)oc2c1` please.
[reply] 1400

[ask] Hello, please tell me recorded IC50 for this one: `COc1ccc(N2CCC[C@H]2COc2cc(OC)cc3oc(-c4cn5nc(OC)sc5n4)cc23)nc1`
[reply] 710

[ask] # return recorded IC50 for input COc1cc(OCC2CCCN(c3ccc(C(F)(F)F)cc3)C2)c2cc(-c3cn4nc(OC)sc4n3)oc2c1 (stereo not drawn)
[reply] 510

* * *

target: PAR4 (Homo sapiens (Human), UniProt Q96RI0); experiment: FLIPR assay in PAR4-expressing HEK293 cells (PAR4 antagonist activity); conditions: H-Ala-Phe(4-F)-Pro-Gly-Trp-Leu-Val-Lys-Asn-Gly-NH2-induced intracellular calcium mobilization, 11-point curves
# pIC50 values compiled below
Bear in mind: pIC50 is minus log10 of a mol/L concentration; give just that figure.

Some compounds with recorded pIC50:
# COMPOUND, ASSAY RESULT
rows = [
    ("COc1cc(OC[C@@H]2CCCN2c2ccc(C)cc2)c2cc(-c3cn4nc(OC)sc4n3)oc2c1", 6.02),
    ("CCOC(=O)c1cnc(N2CCCC(COc3cc(OC)cc4oc(-c5cn6nc(OC)sc6n5)cc34)C2)s1 (stereo not shown)", 5.82),
    ("COc1cc(OCC2CCN(c3ccc(Cl)cc3)CC2)c2cc(-c3cn4nc(OC)sc4n3)oc2c1", 5.57),
]

Could you now look at the following compound, please?
[ask] Jot down pIC50 (PAR4 (Homo sapiens (Human), UniProt Q96RI0)) of `COc1cc(OC[C@H]2CCCN(c3ccc(C#N)cc3)C2)c2cc(-c3cn4nc(OC)sc4n3)oc2c1` .
[reply] 6.07

* * *

target: PAR4 (Homo sapiens (Human), UniProt Q96RI0); test: FLIPR assay in PAR4-expressing HEK293 cells (PAR4 antagonist activity); settings: H-Ala-Phe(4-F)-Pro-Gly-Trp-Leu-Val-Lys-Asn-Gly-NH2-induced intracellular calcium mobilization, 11-point curves
Reported pIC50 by item:
Recall that pIC50 is obtained by taking minus log10 of the concentration measured in molar.

Illustrative cases are given below, each with its answer.
# COMPOUND, pIC50
data = [
    ("COc1cc(OCC2CCCN(c3ccc(NC(=O)C(F)(F)F)nc3)C2)c2cc(-c3cn4nc(OC)sc4n3)oc2c1 (stereo not shown)", 5.89),
    ("COc1cc(OCC2CCCN(c3ccc(N)nc3)C2)c2cc(-c3cn4nc(OC)sc4n3)oc2c1 (stereo not shown)", 4.55),
    ("COc1ccc(N2CCCC(COc3cc(OC)cc4oc(-c5cn6nc(OC)sc6n5)cc34)C2)nc1 (stereo not shown)", 5.55),
    ("COc1cc(OC[C@@H]2CCCN(c3ccc(C#N)cn3)C2)c2cc(-c3cn4nc(OC)sc4n3)oc2c1", 6.12),
    ("COc1cc(OC[C@H]2CCCN2C2CCOCC2)c2cc(-c3cn4nc(OC)sc4n3)oc2c1", 5.03),
    ("COc1cc(OC[C@@H]2CCCN2c2ccc(Cl)cc2)c2cc(-c3cn4nc(OC)sc4n3)oc2c1", 5.89),
]

[ask] Fetch value of pIC50 on PAR4 (Homo sapiens (Human), UniProt Q96RI0) for COc1cc(OCC2CCCN(c3ncc(Br)cn3)C2)c2cc(-c3cn4nc(OC)sc4n3)oc2c1 (stereo not shown) .
[reply] 5.85

* * *

Biological target: PAR4 (Homo sapiens (Human), UniProt Q96RI0)
Test: FLIPR assay in PAR4-expressing HEK293 cells (PAR4 antagonist activity)
Conditions: H-Ala-Phe(4-F)-Pro-Gly-Trp-Leu-Val-Lys-Asn-Gly-NH2-induced intracellular calcium mobilization, 11-point curves
From the text: The FLIPR assay is an exemplary in vitro assay for measuring the activity of the PAR4 antagonists of the present invention. In this assay, intracellular calcium mobilization is induced in PAR4 expressing cells by a PAR4 agonist and calcium mobilization is monitored. See, e.g., Example A. […]
EXPERIMENTAL READOUT: IC50 (nM)
Note: unit nM is implicit; provide only the numeric part.

Examples from the recorded data:
# COMPOUND, TESTED TARGET, UNITS, ASSAY RESULT
data = [
    ("COc1ccc(N2CCC[C@H]2COc2cc(OC)cc3oc(-c4cn5nc(OC)sc5n4)cc23)cc1 [Example 17]", "PAR4 (Homo sapiens (Human), UniProt Q96RI0)", "nM", 290),
    ("COc1ccc(N2CCCC(COc3cc(OC)cc4oc(-c5cn6nc(OC)sc6n5)cc34)C2)c(OC)c1 (centres unmarked) [Example 42]", "PAR4 (Homo sapiens (Human), UniProt Q96RI0)", "nM", 1100),
    ("COc1cc(OCC2CCCN(c3ccc(C#N)cc3)C2)c2cc(-c3cn4nc(OC)sc4n3)oc2c1 (centres unmarked) [Example 40]", "PAR4 (Homo sapiens (Human), UniProt Q96RI0)", "nM", 1300),
    ("COc1cc(OCC2CCCN(C3CCOCC3)C2)c2cc(-c3cn4nc(OC)sc4n3)oc2c1 (centres unmarked) [Example 73]", "PAR4 (Homo sapiens (Human), UniProt Q96RI0)", "nM", 47000),
    ("COc1ccc(N2CCN(CC3CC3)CC2COc2cc(OC)cc3oc(-c4cn5nc(C)ccc5n4)cc23)cc1 (centres unmarked) [Example 7]", "PAR4 (Homo sapiens (Human), UniProt Q96RI0)", "nM", 16000),
]

[ask] Would you please give the reported IC50 of COc1cc(OCC2CCN(c3ccccc3)CC2)c2cc(-c3cn4nc(OC)sc4n3)oc2c1 [Example 51] with PAR4 (Homo sapiens (Human), UniProt Q96RI0)?
[reply] 5000

[ask] Consider the compound COc1cc(OC[C@@H]2CCCN2c2ccc(F)cc2)c2cc(-c3cn4nc(OC)sc4n3)oc2c1 [Example 18] tested on PAR4 (Homo sapiens (Human), UniProt Q96RI0); state its IC50.
[reply] 470

[ask] # lookup: PAR4 (Homo sapiens (Human), UniProt Q96RI0) IC50, key = COc1cc(OC[C@H]2CCCN(c3ccc(F)cc3)C2)c2cc(-c3cn4nc(OC)sc4n3)oc2c1 [Example 52]
[reply] 1100
